experimental target: LPL (lipoprotein lipase) (Mus musculus, UniProt P11152)
Construct: endogenous in cells; host or cells: C2C12 cells, differentiated
Sequence (P11152 28-474): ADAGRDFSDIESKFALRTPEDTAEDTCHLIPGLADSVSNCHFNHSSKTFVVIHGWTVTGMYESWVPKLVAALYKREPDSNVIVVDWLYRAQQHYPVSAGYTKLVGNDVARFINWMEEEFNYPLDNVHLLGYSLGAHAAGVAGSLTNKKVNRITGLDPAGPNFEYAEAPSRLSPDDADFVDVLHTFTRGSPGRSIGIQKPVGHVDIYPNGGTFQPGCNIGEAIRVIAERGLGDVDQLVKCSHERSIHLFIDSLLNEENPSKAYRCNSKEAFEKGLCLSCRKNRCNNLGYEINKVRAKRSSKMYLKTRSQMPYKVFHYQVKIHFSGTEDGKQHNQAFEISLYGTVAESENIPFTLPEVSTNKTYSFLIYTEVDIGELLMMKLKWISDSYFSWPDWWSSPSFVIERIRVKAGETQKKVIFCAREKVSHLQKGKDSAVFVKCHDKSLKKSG
protocol notes: Confirmation test of LPL activation effect in mouse skeletal muscle cells (C2C12 cells)
Format: cell-based
settings: amount of addition 10 μM, 8 hours exposure, vs control group
measured property: Rate of increase in LPL activity (%)

| molecule | experimental target | Rate of increase in LPL activity (%) |
| --- | --- | --- |
| COC(=O)c1ccc(-c2nc(-c3ccc(OCc4ccc(Br)cc4F)cc3OC)c[nH]2)cc1 [Example 92] | LPL (lipoprotein lipase) (Mus musculus, UniProt P11152) | 42 |

[a] COc1cc(OCc2ccc(C#N)cc2)ccc1-c1c[nH]c(-c2ccc(C(F)(F)F)cc2)n1 [Example 17]
[b] COC(=O)c1ccc(-c2nc(-c3ccc(OCc4ccccc4)c(OC)c3)c[nH]2)cc1.Cl [Example 38]
[c] COc1cccc(-c2nc(-c3ccc(OCc4ccc(C#N)cc4)cc3OC)c[nH]2)c1 [Example 100]
Enquiry: Sort the molecules on Rate of increase in LPL activity; start with the lowest figure. Give your ranking as a list of the labels in the requested order.
Return: c, b, a

###

Each item that follows carries a reported melting point.
Structures can show the parent of a compound that is named as a salt.

| molecule | melting point |
| --- | --- |
| COc1cc(OCc2ccc(Cl)cc2)ccc1-c1c[nH]c(-c2ccc(F)c(F)c2)n1 [Example 112] | 252 to 257 °C |
| COc1cc(-c2nc(-c3ccc(C(F)(F)F)cc3)[nH]c2C)ccc1OCc1ccccc1 [Example 34] | 160 to 165 °C |
| COc1cc(OCc2ccccc2)ccc1-c1c[nH]c(-c2cccc(F)c2)n1.Cl [Example 54] | 231 to 235 °C |

Enquiry: Give a short answer stating reported melting point for COc1cc(OCc2ccc(Cl)cc2F)ccc1-c1c[nH]c(-c2ccc(Cl)c(Cl)c2)n1.Cl .
Return: 254 to 258 °C

Enquiry: Identify measured melting point associated with COc1cc(-c2c[nH]c(-c3cc(Cl)cc(Cl)c3)n2)ccc1OCc1ccccc1 [Example 15]
Return: 250 to 251 °C

Enquiry: Using known records, supply melting point for COc1cc(-c2c[nH]c(-c3ccc(C(F)(F)F)cc3)n2)ccc1OCc1ccc(Br)cc1F (as salt: hydrochloride) [Example 1]
Return: 174 to 175 °C

Enquiry: Answer with reported melting point of COc1cc(OCc2ccc(C#N)cc2)ccc1-c1c[nH]c(-c2ccc(Cl)cc2)n1 [Example 76]
Return: 186 to 187 °C

Enquiry: Give melting point for COc1cc(OCc2ccc(Br)cc2F)ccc1-c1c[nH]c(-c2cccc(C)c2)n1 [Example 95]
Return: 120 to 123 °C

Enquiry: Recall and state the measured melting point for COc1cc(OCc2ccc(Cl)cc2)ccc1-c1c[nH]c(-c2cccc(C)c2)n1.Cl .
Return: 217 to 220 °C

Enquiry: Output melting point of COc1cc(OCc2ccc(Cl)cc2F)ccc1-c1c[nH]c(-c2ccc(C)cc2)n1 [Example 136]
Return: 152 to 155 °C

Enquiry: Fill in melting point for record COc1cc(OCc2ccccc2)ccc1-c1c[nH]c(C(C)C)n1 [Example 30]
Return: 154 to 156 °C

Enquiry: Input COc1cc(OCc2ccc(Cl)cc2F)ccc1-c1c[nH]c(-c2cccc(C)c2)n1 [Example 135] , output reported melting point.
Return: 115 to 120 °C

Enquiry: Dear colleague, please send me the reported melting point for COc1cc(OCc2ccc(C#N)cc2)ccc1-c1c[nH]c(-c2cccc(C)c2)n1.Cl when you can.
Return: 243 to 246 °C

###

experimental target: LPL (lipoprotein lipase) (Mus musculus)
Construct: endogenous in cells; host or cells: C2C12 cells, differentiated
protocol notes: Confirmation test of LPL activation effect in mouse skeletal muscle cells (C2C12 cells)
Format: cell-based
settings: amount of addition 30 μM, 8 hours exposure, vs control group
measured property: Rate of increase in LPL activity (%)

| structure | experimental target | result number |
| --- | --- | --- |
| COc1cc(-c2c[nH]c(-c3ccc(C(C)(C)C)cc3)n2)ccc1OCc1ccccc1 | LPL (lipoprotein lipase) (Mus musculus) | 53 |

[a] COc1cc(OCc2ccc(C#N)cc2)ccc1-c1c[nH]c(-c2cccc(Cl)c2)n1
[b] COc1cc(OCc2ccc(Cl)cc2)ccc1-c1c[nH]c(-c2cccc(Cl)c2)n1.Cl
[c] COc1ccc(-c2nc(-c3ccc(OCc4ccc(Cl)cc4)cc3OC)c[nH]2)cc1
Enquiry: Put these in order: smallest Rate of increase in LPL activity first, largest last. Reply with the item labels sorted in the order that was asked for.
Return: a, b, c
(a: 63%, b: 123%, c: 365%)

###

Readings of melting point for the listed molecules

See these solved cases before continuing.
| structure | melting point |
| --- | --- |
| COc1cc(OCc2ccc(C#N)cc2)ccc1-c1c[nH]c(-c2cccc(Cl)c2)n1 | 154 to 157 °C |
| COc1cc(-c2c[nH]c(-c3cc(Cl)cc(Cl)c3)n2)ccc1OCc1ccc(Cl)cc1 | 142 to 145 °C |
| COc1cc(-c2c[nH]c(-c3ccc(F)cc3)n2)ccc1OCc1ccccc1C#N | 204 to 206 °C |
| COc1cc(OCc2ccc(Br)cc2F)ccc1-c1c[nH]c(-c2ccc(C(=O)O)cc2)n1.Cl | > 250 °C |
| COc1cc(OCc2ccccc2)ccc1-c1c[nH]c(-c2ccccc2)n1.Cl | 229 to 230 °C |
| COc1cc(-c2c[nH]c(-c3ccsc3)n2)ccc1OCc1ccccc1C#N.Cl | 236 to 237 °C |
| COc1cc(OCc2ccc(Cl)cc2)ccc1-c1c[nH]c(-c2ccccc2)n1.Cl | 244 to 246 °C |
| COc1cc(-c2c[nH]c(-c3cccs3)n2)ccc1OCc1ccc(Cl)cc1 | 197 to 200 °C |
| COc1cc(-c2c[nH]c(-c3ccc(C(F)(F)F)cc3)n2)ccc1OCc1ccc(Cl)cc1 | 158 to 159 °C |
| COc1ccc(-c2nc(-c3ccc(OCc4ccccc4)cc3OC)c[nH]2)cc1.Cl | 154 to 165 °C |

Enquiry: For the molecule COc1cc(OCc2ccc(Cl)cc2)ccc1-c1c[nH]c(-c2ccc(Cl)c(Cl)c2)n1 , give its reported melting point.
Return: 145 to 148 °C

Enquiry: Hello, please tell me recorded melting point for this one: COc1cc(OCc2ccc(Br)cc2F)ccc1-c1c[nH]c(-c2cc(Cl)cc(Cl)c2)n1
Return: 260 to 265 °C

Enquiry: Consider the molecule COc1ccc(-c2nc(-c3ccc(OCc4ccc(Br)cc4F)cc3OC)c[nH]2)cc1.Cl . State its measured melting point.
Return: > 250 °C

Enquiry: State its melting point for this molecule: COc1cc(OCc2ccc(C#N)cc2)ccc1-c1c[nH]c(-c2cccc(F)c2)n1
Return: 257 to 260 °C

Enquiry: Quickly give me recorded melting point for COc1cccc(-c2nc(-c3ccc(OCc4ccc(C#N)cc4)cc3OC)c[nH]2)c1
Return: 139 to 142 °C

Enquiry: // fetch melting point given entry COc1cc(OCc2ccccc2)ccc1-c1c[nH]c(-c2cc(Cl)cc(Cl)c2)n1
Return: 161 to 163 °C

Enquiry: Assign melting point to the following record: COc1cc(OCc2ccccc2)ccc1-c1c[nH]c(-c2cccc(Cl)c2)n1
Return: 142 to 145 °C

###

Listing of entries alongside the reported melting point.

| structure | melting point |
| --- | --- |
| COc1cc(OCc2ccc(C#N)cc2)ccc1-c1c[nH]c(-c2cccc(C(F)(F)F)c2)n1.Cl | 248 to 250 °C |
| COc1cc(-c2c[nH]c(-c3ccc(C)cc3)n2)ccc1OCc1ccccc1.Cl | 244 to 245 °C |
| COc1cc(OCc2ccc(C#N)cc2)ccc1-c1c[nH]c(-c2ccc(C(F)(F)F)cc2)n1 | 182 to 184 °C |
| COc1cc(-c2c[nH]c(-c3ccc(Cl)cc3)n2)ccc1OCc1ccc(C#N)cc1 | 231 to 232 °C |
| COc1cc(O)ccc1-c1c[nH]c(-c2ccc(C)cc2)n1 | 260 to 262 °C |
| COc1cc(OCc2ccc(C#N)cc2)ccc1-c1c[nH]c(-c2ccsc2)n1 | 183 to 186 °C |
| COc1ccc(-c2nc(-c3ccc(OCc4ccc(C#N)cc4)cc3OC)c[nH]2)cc1.Cl | 183 to 186 °C |
| COc1cc(OCc2ccc(Cl)cc2)ccc1-c1c[nH]c(-c2ccc(C(C)(C)C)cc2)n1 | 154 to 157 °C |

Next compound, please.
Enquiry: In one line, give reported melting point of the entry COc1cc(OCc2ccccc2)ccc1-c1c[nH]c(-c2ccc(F)cc2)n1.Cl .
Return: 217 to 220 °C

Hello, the source for this data is patent US8329739B2, in case you need it.
